# Test system: U251 CNS
# method: NCI tumour cell line growth inhibition, 48 h
Where a SMILES comes first, the peptide text is derived from it. The star is where a group is joined. Boc = CC(C)(C)OC(=O)*
assay-endpoint: TGI

compound	test-result
CCOC(=O)C(=O)C1C(=O)Nc2ccccc21 (centres undefined)	> 100 µM
OCCN(CCO)c1cccc(N(CCO)CCO)c1	> 100 µM
CNc1nc(C)c(-c2nc(Nc3cccc(S(N)(=O)=O)c3)ncc2F)s1	11.5 µM
CCCCCCOc1ccc(/C=N/NC(N)=S)cc1	> 100 µM
O=C1c2ccccc2C(=O)c2c1ccc1c2N=C(c2ccc(F)cc2)CC(c2ccc(Cl)c(Cl)c2)N1 (centres undefined)	24.7 µM
COc1ccc(C[C@H](N)C(=O)N2C[C@H](CO)C[C@H](n3ccc(=O)[nH]c3=O)C2)cc1	> 100 µM
Cc1cn(CC2=NCCCN2)c(=O)[nH]c1=O	> 100 µM
COC(=O)C(Cc1c[nH]c2ccccc12)NC(=O)C(Cc1c[nH]c2ccccc12)NC(=O)C(Cc1c[nH]c2ccccc12)NC(=O)C(Cc1c[nH]c2ccccc12)NC(=O)OC(C)(C)C (centres undefined) (Boc-WWWW-OMe; configuration not given here)	34.6 µM
Cc1cc(NS(=O)(=O)c2ccc(NC(=O)c3cccc4c(NNc5ccc(S(=O)(=O)N=C(N)N)cc5)c5ccccc5nc34)cc2)no1	64.7 µM
